Values from PubChem BioAssay

# viability per entry
Assay info: HUVEC growth inhibition – cell-based, human, primary screen (AID 575);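 note: 100% = median of untreated cell wells with 0.1% DMSO on each plate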
Condition label: HUVEC proliferation, CellTiter-Glo luminescence, 72 h; at 10 µM; stronger effect = lower value
Quick reminder: number only, in %, skip the unit.

Study these solved cases before continuing.
Cc1csc(NC(=O)c2ccco2)n1
82.9
CC1CCC(C(=O)NC(C(=O)NCCN2CCC(C)CC2)C(C)C)CC1 (configuration not stated)
87.6
COc1ccccc1C(=O)n1nc(-c2ccccc2)nc1N
110
O=C(O)CC1=C(O)C(=O)N(c2ccccc2)C1c1ccccc1 (configuration not stated)
96.9
CCn1cc(C2=NOC(C(=O)Nc3cc(C)nn3-c3ccccc3)C2)c(C)n1 (configuration not stated)
101
CCCN(S(=O)(=O)c1ccc(OCC)cc1)S(=O)(=O)c1cccs1
88.1
COc1ccc(-c2ccc(-c3nnc(-c4ccncc4)o3)cc2)cc1
119
CCOC(=O)c1ccc(NC(=O)COc2ccc(-n3cnnn3)cc2)cc1
96.8
CS(=O)(=O)Nc1ccc(C(=O)NCc2ccco2)cc1
104
COC(=O)CCN1CCC(C(N)=O)CC1
102

# viability lookup, item "Cc1cccc(-n2ccnc2SCC(=O)Nc2cc(C)on2)c1"
96.3

Next up: COc1cc(C(c2sc3nc(C)nn3c2O)N2CC(C)CC(C)C2)cc(OC)c1OC (configuration not stated)
98.8

---

# viability per entry
Assay info: SK-BR-3 cell growth inhibitors, pilot screen, 24 h, human (AID 572);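 note: compound exposure lasted between 18 and 24 h rather than exactly 24 h; 100% = carrier-treated control wells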
Condition label: SK-BR-3 viability, CellTiter-Glo luminescence, at 10 µM, stronger effect = lower value
Active and inactive are the calls of the source.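 Rule for the calls: active = viability at or below 10% of carrier control in both of two separate runs; inconclusive = viability at or below 10% in only one of the two runs; inactive = the rest.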

Study these solved cases before continuing.
CCCCC(c1nnnn1C1CCCC1)N1CCN(C2CCCCC2)CC1 (stereo unspecified)
81.5% (inactive)
CC(C)C(=O)Nc1ccc2c(c1)nc1n2CCSC1
104% (inactive)
CCCOc1cccc(C2/C(=C(/O)c3ccccc3)C(=O)C(=O)N2CCN(C)C)c1 (stereo unspecified)
108% (inactive)
Cc1ccc(C(=O)C2COC(=O)C2)cc1 (stereo unspecified)
109% (inactive)
COc1cc(NC(=O)NC(C)(C(F)(F)F)C(F)(F)F)cc(OC)c1OC
138% (inactive)

Pending molecule:
# viability lookup, item CCOc1cc(C2C(C#N)=C(N)OC(C)=C2C(C)=O)cc(Br)c1O (stereo unspecified)
114% (inactive)

---

Target or system: Receptor tyrosine-protein kinase erbB-2 (Homo sapiens) (UniProt P04626)
Sequence (P04626 whole entry, looked up): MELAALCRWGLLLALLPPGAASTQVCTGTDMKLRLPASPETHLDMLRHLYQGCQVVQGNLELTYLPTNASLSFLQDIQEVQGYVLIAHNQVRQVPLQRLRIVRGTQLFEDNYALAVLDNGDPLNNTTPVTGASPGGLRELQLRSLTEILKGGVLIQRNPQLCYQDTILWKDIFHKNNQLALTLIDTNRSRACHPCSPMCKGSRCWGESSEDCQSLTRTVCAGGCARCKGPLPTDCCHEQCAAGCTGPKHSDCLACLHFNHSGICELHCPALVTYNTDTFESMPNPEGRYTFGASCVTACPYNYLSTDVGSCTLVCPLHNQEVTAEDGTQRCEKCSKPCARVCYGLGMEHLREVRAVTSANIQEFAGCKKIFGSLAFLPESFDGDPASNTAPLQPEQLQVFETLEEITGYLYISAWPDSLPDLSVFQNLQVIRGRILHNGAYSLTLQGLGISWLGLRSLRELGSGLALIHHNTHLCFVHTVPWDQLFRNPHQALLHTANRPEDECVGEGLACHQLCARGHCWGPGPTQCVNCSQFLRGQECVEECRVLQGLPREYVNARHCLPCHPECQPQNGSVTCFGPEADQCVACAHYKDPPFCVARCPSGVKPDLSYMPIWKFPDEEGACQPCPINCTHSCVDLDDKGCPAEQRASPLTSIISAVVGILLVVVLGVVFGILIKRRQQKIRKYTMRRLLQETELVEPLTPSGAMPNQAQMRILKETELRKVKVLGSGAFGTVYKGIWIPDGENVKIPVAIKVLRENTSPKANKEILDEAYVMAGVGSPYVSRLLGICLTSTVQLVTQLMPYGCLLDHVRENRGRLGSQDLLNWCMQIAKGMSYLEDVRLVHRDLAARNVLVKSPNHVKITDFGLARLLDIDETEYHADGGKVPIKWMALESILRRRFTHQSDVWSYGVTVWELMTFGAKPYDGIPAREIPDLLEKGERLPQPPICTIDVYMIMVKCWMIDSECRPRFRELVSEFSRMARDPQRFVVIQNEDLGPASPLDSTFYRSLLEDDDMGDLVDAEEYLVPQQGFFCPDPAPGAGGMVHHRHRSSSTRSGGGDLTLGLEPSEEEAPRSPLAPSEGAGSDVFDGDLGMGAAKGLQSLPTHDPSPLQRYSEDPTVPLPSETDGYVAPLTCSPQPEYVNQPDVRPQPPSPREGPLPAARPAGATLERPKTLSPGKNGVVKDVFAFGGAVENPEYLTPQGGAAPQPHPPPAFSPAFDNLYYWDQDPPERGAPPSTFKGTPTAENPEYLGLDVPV
Assay info: reducers of endogenous Her2 protein level, primary screen, SKBR3 breast tumor cells, AlphaScreen, ATP viability (AID 461);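 note: lower value means less Her2 protein in the cells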
Condition label: 18-24 h, at 10 µM, stronger effect = lower value
API: label(entry) gives Condition met if the entry's Her2 level is strictly smaller than 90%; on equality or larger values it gives Condition not met.

The examples below pair each entry with its known result.
COc1ccc(N2CCN(c3nc4c(c(=O)[nH]c(=O)n4C)n3CCCc3ccccc3)CC2)cc1
Condition not met
Oc1cc(NCc2cccnc2)ccc1-c1nc2ccccc2o1
Condition not met
CC1=CCC2C(=O)N(c3nc(C)cc(C)n3)C(=O)C2C1 (stereo unspecified)
Condition met
O=C(CN1CCOCC1)N1CCN(C(=O)CN2CCOCC2)CC1
Condition not met

Decide: Her2 level of "O=C(Nc1cccnc1)c1cccc(NC(=O)c2ccco2)c1" strictly below 90%?
Condition met

Next up: "CCCOc1cc(C)c(S(=O)(=O)N2CCN(C)CC2)cc1C"
Condition not met

Next up: "CCOC(=O)c1cnc(-n2nc(C)cc2C)nc1Nc1cccc(C(C)=O)c1"
Condition not met

Next up: CCS(=O)(=O)N1CCCC(c2nc(-c3cccc(OC)c3)no2)C1 (stereo unspecified)
Condition not met

Next up: CCOc1ccc2[nH]c(=O)c(C(c3nnnn3CC3CCCO3)N3CCc4ccccc4C3)cc2c1 (stereo unspecified)
Condition met

Next up: "c1ccc(Cc2ccc(OCCn3cncn3)cc2)cc1"
Condition not met

---

# inhibition per entry
Assay info: 384-well plate pilot, post-Golgi transport modulator project, inhibition of yeast transport mutant growth (AID 636)
Condition label: absorbance 615 nm, about 18 h, stronger effect = higher value
Quick reminder: number only, in %, skip the unit.

Study these solved cases before continuing.
Cc1ccc(N(CC(=O)NCC2CCCO2)S(C)(=O)=O)cc1Cl (configuration not stated)
1.41
CC(C)(C)OC(=O)N1CC(O)CC1C(=O)OCC(=O)c1ccc(Cl)cc1 (configuration not stated)
-5.68
CCCC(NC(=O)c1ccccc1)c1nc2ccccc2n1Cc1ccc(C(=O)OC)o1 (configuration not stated)
-2.76
CN(C)c1ccc2c(c1)OC(N)=C(C#N)C2c1cccc(F)c1 (configuration not stated)
-3.24
O=C(c1ccc(Cl)cc1)C1CCN(C(=O)NC2CCCCC2)CC1
-4.8

# inhibition lookup, item "CC(C)CNC(=O)c1c(N)n(/N=C/c2ccccn2)c2nc3ccccc3nc12"
-4.67

Next up: "Cn1c(=O)cc(SCC(=O)N2CCOCC2)c2ccc(Cl)cc21"
-2.37

Next up: "COc1ccc(CCNS(=O)(=O)c2ccc3oc(C(=O)O)c(C)c3c2)cc1OC"
0.78

Next up: CCOc1ccccc1CN1C(=O)c2ccccc2C1C(=O)NCC1CCCO1 (configuration not stated)
-1.47

Next up: "Cn1c(CCNC(=O)c2ccco2)nc2cc(NC(=O)C3CCCCC3)ccc21"
-8.49

Next up: "CC(=O)c1c(C)[nH]c(C(=O)N2CCN(C(=O)c3ccco3)CC2)c1C"
-2.3

Next up: "O=C(c1ccc2c(c1)OCCO2)C1CCN(C(=O)c2ccc(F)cc2)CC1"
-6.35

Next up: "CCn1c(C)nc2cc(C(=O)OCCC(F)(F)F)ccc21"
-2.44

Next up: N#CC1=C(N)Oc2n[nH]c(-c3ccncc3)c2C1c1ccsc1 (configuration not stated)
0.53

Next up: "CCNc1nc(OC)nc(Oc2ccc(=O)n(-c3ccccc3)n2)n1"
-8.51

Next up: CCc1[nH]nc2c1C(c1cccc(OC(=O)N3CCOCC3)c1)C(C#N)=C(N)O2 (configuration not stated)
-3.42

Next up: CC1CN(Cc2nc3c(c(=O)[nH]c(=O)n3C)n2CC(N)=O)CC(C)O1 (configuration not stated)
0.51

Next up: "CCCCn1c(NCCC)nc2c1c(=O)[nH]c(=O)n2C"
-3.51

Next up: "CC(C)CC(=O)CN1C(=O)C2(OCCO2)c2ccccc21"
-5.14

Next up: CC(C)C(OC(=O)c1ccco1)C(=O)NCc1ccccc1 (configuration not stated)
0

Next up: "COCC(=O)N(Cc1ccc(OC)cc1)Cc1nc2ccccc2c(=O)[nH]1"
-5.66

Next up: CCC(C)OC(=O)n1ccc(C(=O)Nc2nccs2)n1 (configuration not stated)
0.53

---

Assay info: 384-well plate pilot, post-Golgi transport modulator project, inhibition of yeast transport mutant growth (AID 636)
Condition label: absorbance 615 nm, about 18 h, stronger effect = higher value
# inhibition per entry
Quick reminder: number only, in %, skip the unit.

Study these solved cases before continuing.
Cc1cc(-c2ccccc2)c2c3c(cn2n1)c(=O)n(C)c(=O)n3C
-2.37
CCOc1ccc(OCc2ccc(C(=O)Nc3cccc(C)n3)o2)cc1
-1.58
Brc1ccc(-c2cn3cccnc3n2)cc1
-3.87
COC(=O)c1oc2ccc(Br)cc2c1NC(=O)CN1CCN(C)CC1
1.18
Cc1nnc(SCc2cc(=O)[nH]c(N3CCCCC3)n2)s1
-7.3

Pending molecule:
# inhibition lookup, item "Cn1cccc1Cc1nnc(SCC(=O)Nc2ccccc2F)n1-c1ccc(F)cc1"
-1.28

---

Assay info: reversal of MRP1-mediated doxorubicin resistance, pilot screen, H69AR cells, doxorubicin co-treatment (AID 601)
Condition label: H69AR cells, CellTiter-Glo, 72 h; compound alone cytotoxicity; at 10 µM
Measured attribute: viability (%)
Quick reminder: number only, in %, skip the unit.

CCCOc1ccccc1NC(=O)c1c(-c2ccccc2)noc1C
89
CCOC(=O)c1ccccc1NC(=O)CSc1nc2c(c(=O)n(C)c(=O)n2C)n1C
92.4
CCOC(=O)c1[nH]c(=O)c2ccccc2c1O
90.8
Cc1nc(SCC#N)c2c(C)c(C)sc2n1
98.4

# viability lookup, item Cc1cccc(CS(=O)(=O)Cc2ccc(C(=O)NCC3CCCO3)o2)c1 (configuration not stated)
94.7

Next up: "COC(=O)c1[nH]c2ccc(F)cc2c1NS(=O)(=O)c1ccc(OC)cc1OC"
84.4

Next up: CCn1cc(C2=NOC(C(=O)Nc3cc(C)nn3-c3ccccc3)C2)c(C)n1 (configuration not stated)
101

Next up: "N#CCSc1nc(-c2ccccc2)cs1"
98

Next up: "CCOC(=O)c1[nH]nc(-c2c(O)cc(C)cc2O)c1-c1csc(C)n1"
96.5

Next up: "CCN(CC)CCCN(Cc1cc2cc(OC)ccc2[nH]c1=O)C(=O)Nc1ccccc1"
77.7
